Measured dynamic binding capacity at 10% breakthrough by item
ASSAYED TARGET: GH (GH stock solution) (UniProt P01241)
Sequence (P01241 27-217 limits assumed): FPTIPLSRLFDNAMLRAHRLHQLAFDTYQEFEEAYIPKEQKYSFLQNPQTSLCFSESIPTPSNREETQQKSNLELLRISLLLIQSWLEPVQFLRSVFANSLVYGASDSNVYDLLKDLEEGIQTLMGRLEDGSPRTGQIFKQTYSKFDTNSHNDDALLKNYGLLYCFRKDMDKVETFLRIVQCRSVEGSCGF
EXPERIMENT DESCRIPTION: affinity chromatography, VHH-conjugated medium loaded with GH stock solution; medium in 0.1M NaOH 32h
MEASURE: dynamic binding capacity at 10% breakthrough

BINDER: M74 (Second round) (VHH, Entry already carries A57D; G134R; R100eE); tail DDDDK-SGGRGS-HHHHHH) VHH: QVQLVESGGGLAQAGGSLRLSCAVSGMPEFARAMGWFRQAPGKERELLAAIEGIGDTTYYADSVKGRFTISRDDAANTVLLQMNSLKPDDTAVYYCAAAFSVTIPTRAEHWVDWGPGTLVTVSS
VALUE: 15.4
--
BINDER: M45 (First round) (VHH) VHH: QVQLVESGGGLAQAGGSLRLSCAVSGMPEFARAMGWFRQAPGKERELLAAIEGIGATTYYADSVKGRFTISRDDAANTVLLQMNSLKPDDTAVYYCAAAFSVTIPTRARHWVDWGPGTLVTVSS
VALUE: 16.2
--
BINDER: M20 (First round) (VHH) VHH: QVQLVESGGGLAQAGGSLRLSCAVSGMPEFARAMGWFRQAPGKERELVAAIEGIGATTYYADSVKGRFTISRDDAANTVLLQMNSLKPDDTAVYYCAAAFSVTIPTRARHWVDWGPGTLVTVSS
VALUE: 16.9
--
BINDER: M67 (Second round) (VHH, Entry already carries A15P; P105Q); tail DDDDK-SGGGGS-HHHHHH) VHH: QVQLVESGGGLAQPGGSLRLSCAVSGMPEFARAMGWFRQAPGKERELLAAIEGIGATTYYADSVKGRFTISRDDAANTVLLQMNSLKPDDTAVYYCAAAFSVTIPTRARHWVDWGQGTLVTVSS
VALUE: 14.9
--
BINDER: M78 (Second round) (VHH, Entry already carries A57D; G134R; D102Y); tail DDDDK-SGGRGS-HHHHHH) VHH: QVQLVESGGGLAQAGGSLRLSCAVSGMPEFARAMGWFRQAPGKERELLAAIEGIGDTTYYADSVKGRFTISRDDAANTVLLQMNSLKPDDTAVYYCAAAFSVTIPTRARHWVYWGPGTLVTVSS
VALUE: 15.4
